Reference source: the supplement of paper PMC9732359

// reported protein stability index for each item listed
- Assay explanation: protein stability index of a GFP-peptide fusion (yeast GPS) (PSI 1-4); higher = more stable; sorted into four equal gates, so the index is relative within each strain
- Test parameters: ubr1∆
In your answer, state the number alone without any accompanying words.

[[record]]
item_sequence = "SGSLFGSNNAQTSRGLF [YGL172W/NUP49]"
value = 2.84


Let us examine a further case.
-- ask Give reported protein stability index value for DSKNTPNVFDKDSYVRI [YDL088C/ASM4]
-- reply 3.25

###

- Assay explanation: protein stability index of a GFP-peptide fusion (yeast GPS) (PSI 1-4); higher = more stable; sorted into four equal gates, so the index is relative within each strain
- Test parameters: pdr5∆
Readout: protein stability index
Field format: numeric only.

[[record]]
item_sequence = "VVEPEHMADAKIMPKDI [SIR4]"
readout = "protein stability index"
value = 3.35

[[record]]
item_sequence = "AEEAAAEEEEESDDDMG [RPP0]"
readout = "protein stability index"
value = 2.94

[[record]]
item_sequence = "AKITEIGSTSKRPIESG [YIL149C/MLP2]"
readout = "protein stability index"
value = 3.07

[[record]]
item_sequence = "TKCSTVVKASELDQFWQ [SRP14]"
readout = "protein stability index"
value = 2.14

[[record]]
item_sequence = "QLIPIILRQRGPGFKFV [SRB4]"
readout = "protein stability index"
value = 1.65


-- ask Specify protein stability index for HLLLGFQVSNVISLGPN [YJL039C/NUP192] and stop.
-- reply 1.75

-- ask Fill in reported protein stability index for this entry: SPYGNLQNDLIHKIQND [RPN5]
-- reply 2.67

###

- Assay explanation: protein stability index of a GFP-peptide fusion (yeast GPS) (PSI 1-4); higher = more stable; sorted into four equal gates, so the index is relative within each strain
- Test parameters: doa10∆
Readout: protein stability index

Past entries and their recorded results:
[[record]]
item_sequence = "QLISAVLVSMGSSNKAV [YJL039C/NUP192]"
readout = "protein stability index"
value = 1.47

[[record]]
item_sequence = "VSADDFVEEQNVYVLPK [PRP8]"
readout = "protein stability index"
value = 3.44

[[record]]
item_sequence = "LTTQFVTDKYTAKKTNR [YDL088C/ASM4]"
readout = "protein stability index"
value = 2.74

[[record]]
item_sequence = "LCRNPLTSGLLYSYLIK [YJL039C/NUP192]"
readout = "protein stability index"
value = 2.07

[[record]]
item_sequence = "QQQQQQQQQQQHIYPSS [GAL11]"
readout = "protein stability index"
value = 2.69


-- ask Specify reported protein stability index for the sequence shown: CSHCGCVYVPNFNASLQ [SNM1]
-- reply 3.36

-- ask Read the entry KTYKEGINKNEEYRKQL [SMC1] and write its reported protein stability index.
-- reply 3.23

-- ask Answer with reported protein stability index of DGSKMLKRADYTAVDTA [RPN14]
-- reply 3.58

-- ask Retrieve protein stability index measured for VNNTRRRVYNRVLETTL [BRN1] and print it.
-- reply 2.5

-- ask Kindly indicate its recorded protein stability index. Item: VQGGNAAPSAADIKAVV [RPP2B]
-- reply 3.01

###

- Assay explanation: protein stability index of a GFP-peptide fusion (yeast GPS) (PSI 1-4); higher = more stable; sorted into four equal gates, so the index is relative within each strain
- Test parameters: pdr5∆
Reported protein stability index values follow for various sequences
Respond with the number and no other words.

Some sequences with recorded protein stability index:
[[record]]
item_sequence = "LNDLNHLLVQLQKNDVY [REC8]"
value = 2.48

[[record]]
item_sequence = "TSPIDIREKVAKQALDL [SNF2]"
value = 3.17

[[record]]
item_sequence = "SLLGGFDENIARDIISH [PCI8]"
value = 2.83

[[record]]
item_sequence = "SDDIISQVDPITLFVLV [FAS2]"
value = 1.38

[[record]]
item_sequence = "PKMQWSLQDNSAAINNE [RPN4]"
value = 3.2

[[record]]
item_sequence = "GNGLVDENKVEAFKSLY [YAR002W/NUP60]"
value = 3.14

[[record]]
item_sequence = "GGSGNGDDVVNDVQGID [RPP1]"
value = 3.55

[[record]]
item_sequence = "IYRYKYKVMHQIRACKD [PRP8]"
value = 2.14


-- ask Supply reported protein stability index belonging to this sequence: EGRSFTKAIEDAKKEMK [YLR335W/NUP2]
-- reply 2.7

-- ask Tell me protein stability index reported for AKSDETKQASSFSFLNR [YLR335W/NUP2]
-- reply 3.39

-- ask Report protein stability index, nothing else, for this sequence: NAAGNTPDATKIKAILE [RPP2A]
-- reply 3.32

###

- Assay explanation: protein stability index of a GFP-peptide fusion (yeast GPS) (PSI 1-4); higher = more stable; sorted into four equal gates, so the index is relative within each strain
- Test parameters: ubr1∆
Readout: protein stability index

[[record]]
item_sequence = "ESKSLLNLFSNVLKAPF [SIR4]"
readout = "protein stability index"
value = 2.48

[[record]]
item_sequence = "DCIIRLPVKWETTTQFK [FAS1]"
readout = "protein stability index"
value = 2.43

[[record]]
item_sequence = "RNQVQTENVAQARIILN [YGR119C/NUP57]"
readout = "protein stability index"
value = 2.78

[[record]]
item_sequence = "SDSSSEDEVKVEGPKFT [YLR335W/NUP2]"
readout = "protein stability index"
value = 3.44

[[record]]
item_sequence = "KRTRLESLKNLNESRSQ [SMC3]"
readout = "protein stability index"
value = 2.82

[[record]]
item_sequence = "VKKTGENEISSLLAMHK [CDC53]"
readout = "protein stability index"
value = 2.87


-- ask Give protein stability index for KKSRLGNSFHLMRELLK [PRP8]
-- reply 2.55

-- ask Annotate the sequence KTKILEVAIRDVNLDVR [IRR1] with its measured protein stability index.
-- reply 2.48

-- ask Check the records and state protein stability index for FGQKGGQAIVVHPDYLY [FAS2]
-- reply 1.68

###

- Assay explanation: protein stability index of a GFP-peptide fusion (yeast GPS) (PSI 1-4); higher = more stable; sorted into four equal gates, so the index is relative within each strain
- Test parameters: san1∆
Note to self: values exactly at 3 are true. So protein stability index at or above 3 is true, below is false.

[[record]]
item_sequence = "KLAKNLQIGDVVERHLE [RPO31]"
group_label = "true"

[[record]]
item_sequence = "FVDLVEHFLKLNIDFGS [YML103C/NUP188]"
group_label = "false"

[[record]]
item_sequence = "DFNQAFEGTDDNEEASV [BRN1]"
group_label = "true"

[[record]]
item_sequence = "AKITEIGSTSKRPIESG [YIL149C/MLP2]"
group_label = "true"

[[record]]
item_sequence = "TIKISTNDDSIKNLTVQ [RGR1]"
group_label = "false"


-- ask Is protein stability index for SEPIDLIIIEKKQKLIE [ITC1] at or above 3?
-- reply false

-- ask Please check the record KSGTSHDAIFSIYKYIH [SNF12] and state if its protein stability index is at or above 3.
-- reply false

-- ask Is reported protein stability index greater than or equal to 3 here: EDEEDDNISSFHSAVEN [YCG1]
-- reply true

-- ask I'd appreciate it if you could say whether MDTSDDAFVATAFATEF [DLS1] has protein stability index at least equal to 3.
-- reply false

###

- Assay explanation: protein stability index of a GFP-peptide fusion (yeast GPS) (PSI 1-4); higher = more stable; sorted into four equal gates, so the index is relative within each strain
- Test parameters: san1∆
protein stability index reference
The answer should be written as a number, with no unit following it.

[[record]]
item_sequence = "NARIYNTEGSVVYEDSL [SNF2]"
readout = "protein stability index"
value = 2.92

[[record]]
item_sequence = "GESIMSEEPTDFGFDLD [MCD1]"
readout = "protein stability index"
value = 3.34

[[record]]
item_sequence = "PGGILRAQHVKKLATRP [RPL34A]"
readout = "protein stability index"
value = 3.37

[[record]]
item_sequence = "SWVQPRIISGDQITKMK [RPN9]"
readout = "protein stability index"
value = 2.94

[[record]]
item_sequence = "LYNVMGINKKKLLAISK [RPC31]"
readout = "protein stability index"
value = 3.67


-- ask Let me know recorded protein stability index for KLGIESKQPNSAIRKCV [RPS23A] , thanks.
-- reply 3.02

-- ask Tell me measured protein stability index for EMGKTDKSTKTAEAPTL [YOR098C/NUP1] please.
-- reply 2.89

-- ask Annotate the sequence MSAKAEKKPASKAPAEK [HTB1] with its measured protein stability index.
-- reply 3.16

-- ask Query protein stability index for RYNAKAIGSGSEGAQAE [PUP2]
-- reply 3.36

-- ask Give protein stability index for the following sequence: IDNGAESSENEAEDDDN [RPC53]
-- reply 3.15
